// data source = ChEMBL document CHEMBL4351010

System Under Test: Adenosine receptor A1 (Homo sapiens, UniProt P30542)
Assay Overview: Displacement of [3H]DPCPX from human cloned adenosine receptor A1 expressed in CHO-K1 cell membranes incubated for 60 mins by microbeta counting method
Property Name: Ki (µM)

(A) Nc1nc(N/N=C/c2ccc(-c3ccccc3)cc2)nc2c1ncn2[C@@H]1O[C@H](CO)[C@@H](O)[C@H]1O
(B) Nc1nc(N/N=C/c2ccc(N3CCOCC3)cc2)nc2c1ncn2[C@@H]1O[C@H](CO)[C@@H](O)[C@H]1O
Query: Smaller Ki value? Options are A and B Pick one and reply with its label.
Reply: B
(B: 0.0025 µM, A: 7.86 µM)

====

System Under Test: Adenosine receptor A1 (Homo sapiens, UniProt P30542)
Sequence (P30542 whole entry): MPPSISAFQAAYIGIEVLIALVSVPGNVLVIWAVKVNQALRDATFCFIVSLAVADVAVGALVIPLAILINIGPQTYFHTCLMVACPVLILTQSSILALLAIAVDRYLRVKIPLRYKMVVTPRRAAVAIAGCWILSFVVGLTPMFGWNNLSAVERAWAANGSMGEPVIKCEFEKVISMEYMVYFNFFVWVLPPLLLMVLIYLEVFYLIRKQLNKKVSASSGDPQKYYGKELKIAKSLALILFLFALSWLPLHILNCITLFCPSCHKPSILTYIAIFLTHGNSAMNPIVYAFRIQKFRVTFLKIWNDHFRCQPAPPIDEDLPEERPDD
Assay Overview: Displacement of [3H]DPCPX from human cloned adenosine receptor A1 expressed in CHO-K1 cell membranes incubated for 60 mins by microbeta counting method
pKi: −log10 of the molar value.
Property Name: pKi

Example molecules with recorded pKi:
CC(/C=N/Nc1nc(N)c2ncn([C@@H]3O[C@H](CO)[C@@H](O)[C@H]3O)c2n1)Cc1ccc(C(C)C)cc1 (stereo partly specified)    5.02
Nc1nc(N/N=C/c2ccc(Br)cn2)nc2c1ncn2[C@@H]1O[C@H](CO)[C@@H](O)[C@H]1O    8.33
Nc1nc(N/N=C/c2cccc(OCc3ccccc3)c2)nc2c1ncn2[C@@H]1O[C@H](CO)[C@@H](O)[C@H]1O    7.89

(P) COc1ccc(/C=N/Nc2nc(N)c3ncn([C@@H]4O[C@H](CO)[C@@H](O)[C@H]4O)c3n2)cn1
(Q) COc1cc(/C=N/Nc2nc(N)c3ncn([C@@H]4O[C@H](CO)[C@@H](O)[C@H]4O)c3n2)ccc1OCc1ccccc1
(R) Nc1nc(N/N=C/c2ccc(OCc3ccc(F)cc3)cc2)nc2c1ncn2[C@@H]1O[C@H](CO)[C@@H](O)[C@H]1O
(S) Nc1nc(N/N=C/c2cccnc2Cl)nc2c1ncn2[C@@H]1O[C@H](CO)[C@@H](O)[C@H]1O
(T) Nc1nc(N/N=C/c2ccc3ncccc3c2)nc2c1ncn2[C@@H]1O[C@H](CO)[C@@H](O)[C@H]1O
Query: // ranking: key=pKi, reverse=True Answer by listing the labels in the requested order.
Reply: P, S, T, R, Q

====

System Under Test: Adenosine receptor A1 (Homo sapiens, UniProt P30542)
Assay Overview: Displacement of [3H]DPCPX from human cloned adenosine receptor A1 expressed in CHO-K1 cell membranes incubated for 60 mins by microbeta counting method
pKi: −log10 of the molar value.
Property Name: pKi

Nc1nc(N/N=C/c2ccc(N3CCCC3)cc2)nc2c1ncn2[C@@H]1O[C@H](CO)[C@@H](O)[C@H]1O    8.29
N#Cc1ccc(/C=N/Nc2nc(N)c3ncn([C@@H]4O[C@H](CO)[C@@H](O)[C@H]4O)c3n2)cc1    8.39

====

System Under Test: Adenosine receptor A2a (Homo sapiens, UniProt P29274)
Sequence (P29274 whole entry): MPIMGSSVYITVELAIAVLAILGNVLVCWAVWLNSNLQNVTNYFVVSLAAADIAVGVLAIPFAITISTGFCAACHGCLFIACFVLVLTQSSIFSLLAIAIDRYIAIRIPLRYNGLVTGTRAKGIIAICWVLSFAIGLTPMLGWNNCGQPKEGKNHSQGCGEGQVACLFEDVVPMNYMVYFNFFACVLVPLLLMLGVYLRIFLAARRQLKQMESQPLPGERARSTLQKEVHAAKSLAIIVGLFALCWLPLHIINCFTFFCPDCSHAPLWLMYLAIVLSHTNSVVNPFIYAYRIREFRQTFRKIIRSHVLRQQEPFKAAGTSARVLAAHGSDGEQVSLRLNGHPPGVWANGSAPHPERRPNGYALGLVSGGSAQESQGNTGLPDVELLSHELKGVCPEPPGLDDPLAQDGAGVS
Assay Overview: Agonist activity at human adenosine receptor A2A expressed in HEK293 cells assessed as cAMP accumulation incubated for 30 mins by Eu-cAMP tracer-based Envision plate reader analysis
pEC50: −log10 of the molar value.
Property Name: pEC50

Some solved entries appear below for comparison.
Nc1nc(N/N=C/c2ccc(OCc3ccc(F)cc3)cc2)nc2c1ncn2[C@@H]1O[C@H](CO)[C@@H](O)[C@H]1O    8.39
CC(/C=N/Nc1nc(N)c2ncn([C@@H]3O[C@H](CO)[C@@H](O)[C@H]3O)c2n1)Cc1ccc(C(C)C)cc1 (some centres not stated)    8.86
Nc1nc(N/N=C/c2cccnc2Cl)nc2c1ncn2[C@@H]1O[C@H](CO)[C@@H](O)[C@H]1O    8.34
CCN(CC)c1ccc(/C=N/Nc2nc(N)c3ncn([C@@H]4O[C@H](CO)[C@@H](O)[C@H]4O)c3n2)cc1    7.75
CCCCc1nc(/C=N/Nc2nc(N)c3ncn([C@@H]4O[C@H](CO)[C@@H](O)[C@H]4O)c3n2)c(Cl)[nH]1    8.96

(A) N#Cc1ccc(/C=N/Nc2nc(N)c3ncn([C@@H]4O[C@H](CO)[C@@H](O)[C@H]4O)c3n2)cc1
(B) Nc1nc(N/N=C/c2ccc[nH]2)nc2c1ncn2[C@@H]1O[C@H](CO)[C@@H](O)[C@H]1O
Query: // task: argmin of pEC50 over [ A , B ] Respond using the label that marks the chosen record.
Reply: A
(A: 7.82, B: 8.07)

====

System Under Test: Adenosine receptor A1 (Homo sapiens, UniProt P30542)
Assay Overview: Displacement of [3H]DPCPX from human cloned adenosine receptor A1 expressed in CHO-K1 cell membranes incubated for 60 mins by microbeta counting method
Property Name: Ki

CCCOc1ccc(/C=N/Nc2nc(N)c3ncn([C@@H]4O[C@H](CO)[C@@H](O)[C@H]4O)c3n2)cc1    > 10 µM
COc1cc(/C=N/Nc2nc(N)c3ncn([C@@H]4O[C@H](CO)[C@@H](O)[C@H]4O)c3n2)cc(OC)c1OC    > 10 µM
Nc1nc(N/N=C/c2ccc(-c3ccccn3)cc2)nc2c1ncn2[C@@H]1O[C@H](CO)[C@@H](O)[C@H]1O    7.54 µM
Nc1nc(N/N=C/c2ccc(Cl)c(C(F)(F)F)c2)nc2c1ncn2[C@@H]1O[C@H](CO)[C@@H](O)[C@H]1O    > 10 µM
CC(=O)Nc1ccc(/C=N/Nc2nc(N)c3ncn([C@@H]4O[C@H](CO)[C@@H](O)[C@H]4O)c3n2)cc1    > 10 µM
Nc1nc(N/N=C/c2ccc(C(F)(F)F)cc2)nc2c1ncn2[C@@H]1O[C@H](CO)[C@@H](O)[C@H]1O    0.037 µM
Nc1nc(N/N=C/c2ccc(OCc3ccccc3)c(OCc3ccccc3)c2)nc2c1ncn2[C@@H]1O[C@H](CO)[C@@H](O)[C@H]1O    > 10 µM

Query: Ki lookup needed for CCOc1cc(/C=N/Nc2nc(N)c3ncn([C@@H]4O[C@H](CO)[C@@H](O)[C@H]4O)c3n2)ccc1O , thanks.
Reply: 6.94 µM

====

Catalogue of compounds with associated pKi
System Under Test: Adenosine receptor A1 (Homo sapiens)
Assay Overview: Displacement of [3H]DPCPX from human cloned adenosine receptor A1 expressed in CHO-K1 cell membranes incubated for 60 mins by microbeta counting method
pKi: −log10 of the molar value.

Look over these answered cases.
Nc1nc(N/N=C/c2ccc(N(c3ccccc3)c3ccccc3)cc2)nc2c1ncn2[C@@H]1O[C@H](CO)[C@@H](O)[C@H]1O    < 5.00
Nc1nc(N/N=C/c2ccc(-n3ccnc3)cc2)nc2c1ncn2[C@@H]1O[C@H](CO)[C@@H](O)[C@H]1O    < 5.00

For the next question, use this compound.
Query: Given Nc1nc(N/N=C/c2ccc(C(F)(F)F)cc2C(F)(F)F)nc2c1ncn2[C@@H]1O[C@H](CO)[C@@H](O)[C@H]1O , state its recorded pKi.
Reply: < 5.00
